TARGET_UNDER_TEST: human recombinant bradykinin B1 receptor (Homo sapiens, UniProt P46663)
Construct: purchased Euroscreen ES-091; host or cells: CHO cells
Sequence (P46663 1-353): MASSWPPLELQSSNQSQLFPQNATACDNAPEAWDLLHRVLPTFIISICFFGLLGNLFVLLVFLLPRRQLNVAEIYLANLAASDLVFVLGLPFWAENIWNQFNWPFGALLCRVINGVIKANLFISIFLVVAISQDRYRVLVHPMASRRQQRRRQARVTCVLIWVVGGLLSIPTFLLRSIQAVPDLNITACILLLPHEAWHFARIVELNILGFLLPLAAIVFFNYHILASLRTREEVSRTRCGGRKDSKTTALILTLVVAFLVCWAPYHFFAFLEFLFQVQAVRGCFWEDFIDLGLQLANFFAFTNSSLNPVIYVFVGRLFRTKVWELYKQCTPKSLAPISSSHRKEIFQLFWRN
PROTOCOL_DETAILS: Human recombinant bradykinin B1 receptor binding
CONDITION_PARAMETERS: CHO cell membranes, [3H]-[Des-Arg10] Kallidin radioligand; read-out: B1 binding
Counter-ions that a name gives are not always drawn.
Listed below: Ki values for each entry.

O=C(CNC(=O)c1ccc(S(=O)(=O)Nc2ccccc2Sc2ccccc2)cc1)NCC1CCNCC1 [Example 39, hydrochloride]
< 20 nM
O=C(N[C@@H](Cc1ccc(O)cc1)C(=O)N1CCC(CCO)CC1)c1ccc(S(=O)(=O)Nc2ccccc2Oc2ccccc2)cc1
< 20 nM
O=C(NCC(=O)N1CCCN(CCCN2CCCC2)CC1)c1ccc(S(=O)(=O)Nc2ccccc2Sc2ccccc2)cc1
20 to 100 nM
O=C(N[C@H](CO)C(=O)N1CCC(CCN2CCCC2)CC1)c1ccc(S(=O)(=O)Nc2ccccc2Oc2ccccc2)cc1
< 20 nM
O=C(N[C@@H](Cc1ccc(O)cc1)C(=O)N1CCC(N2CCCC2)CC1)c1ccc(S(=O)(=O)Nc2ccccc2Oc2ccccc2)cc1
< 20 nM

# lookup: `C[C@H](NC(=O)c1ccc(S(=O)(=O)Nc2ccccc2Oc2ccccc2)cc1)C(=O)N1CCC(CCN2CCCC2)CC1` on human recombinant bradykinin B1 receptor (Homo sapiens, UniProt P46663), Ki = < 20 nM

----------
IC50 listing for selected compounds.
TARGET_UNDER_TEST: recombinant human B1 receptors (Homo sapiens, UniProt P46663)
Construct: host or cells: CHO (CHO-B1)
PROTOCOL_DETAILS: Functional assay: antagonist potency by cytosolic calcium measurement in CHO-B1 cells
Assay type: cell-based
CONDITION_PARAMETERS: reference compounds, functional test; read-out: IC50
Report as a plain number; the unit µM is understood.

Reported IC50 for CN1CCN(C(=O)C2CCN(S(=O)(=O)c3ccc(NCC(c4ccccc4)c4ccccc4)c(C(=O)N4CCOCC4)c3)CC2)CC1 [NVP-SAA164, reference compound] was 0.033

Per the record, CCCN1C(=O)[C@H](NC(=O)Nc2ccc(N3CCC(N4CCCCC4)CC3)cc2)N=C(c2ccc(C)cc2)c2ccccc21 [compound 3, reference compound] has IC50 of 0.0645

----------
Measured Ki values are reported for all entries that follow.
TARGET_UNDER_TEST: human recombinant bradykinin B1 receptor (Homo sapiens, UniProt P46663)
Construct: purchased Euroscreen ES-091; host or cells: CHO cells
PROTOCOL_DETAILS: Human recombinant bradykinin B1 receptor binding
CONDITION_PARAMETERS: CHO cell membranes, [3H]-[Des-Arg10] Kallidin radioligand; read-out: B1 binding

// known answers, use as guide
O=C(N[C@H](Cc1ccc(O)cc1)C(=O)N1CCC(CCN2CCCC2)CC1)c1ccc(S(=O)(=O)Nc2ccccc2Oc2ccccc2)cc1
< 20 nM
CN1CCC(N2CCN(C(=O)[C@H](Cc3ccc(O)cc3)NC(=O)c3ccc(S(=O)(=O)Nc4ccccc4Oc4ccccc4)cc3)CC2)CC1
< 20 nM
O=C(NCC(=O)N1CCC(CCN2CCCC2)CC1)c1ccc(S(=O)(=O)Nc2ccccc2Sc2ccccc2)cc1
< 20 nM
O=C(NCC(=O)N1CCC(N2CCCC2)CC1)c1ccc(S(=O)(=O)Nc2ccccc2Sc2ccccc2)cc1
< 20 nM
C[C@@H](NC(=O)c1ccc(S(=O)(=O)Nc2ccccc2Oc2ccccc2)cc1)C(=O)N1CCC(CCN2CCCC2)CC1
< 20 nM
O=C(N[C@H](Cc1ccc(O)cc1)C(=O)N1CCC(CO)CC1)c1ccc(S(=O)(=O)Nc2ccccc2Oc2ccccc2)cc1
< 20 nM

Summary for this compound, CN1CCCC(CN2CCN(C(=O)CNC(=O)c3ccc(S(=O)(=O)Nc4ccccc4Sc4ccccc4)cc3)CC2)C1 (stereo not shown) : Ki is 20 to 100 nM
